What cAMP assay IC50 was measured for each of the following?
Target: T1, human alpha CGRP (SEQ ID NO: 80) (human, not fully specified)
T1 peptide: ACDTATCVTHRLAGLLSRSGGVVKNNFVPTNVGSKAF
Test: cell-based or functional assay
A complete answer gives the number and then names the unit.

Input line: # return recorded cAMP assay IC50 for entry tag-free lipocalin mutein SEQ ID NO: 93 (designed binder, biotinylated by NHS chemistry for capture in SPR; also called tag-free mutein 93) GQDSTSDLIHAPPLSKVPLQQNFQDNQFHGKWYVVGRAGNDVLREDKDPEKMEATIYELKEDKSYQVTDVGFVQKRCMYVTHTFVPGSQPGEFTLGNIESYPGVTSALVRVVSTDYNQHAMVFVKLVKQNRELFEITLYGRTKELTSELKENFIRFSKSLGLPENHIVFPVPIDQCIDD
Output line: 0.13 nM

Input line: # return recorded cAMP assay IC50 for entry tag-free lipocalin mutein SEQ ID NO: 87 (designed binder, biotinylated by NHS chemistry for capture in SPR; also called tag-free mutein 87) GQDSTSDLIPAPPLSKVPLQQNFQDNQFQGKWYVVGWAGNTLLREDKDPIKMQAMIYELKEDKSYNVTWVYFADKKINYHIETFVPGSQPGEFTLGTIKSYPGETPILVRVVSTNYNQHAMVFFKGVNQNREIFEIVLYGRTKELTNELKENFIRFSKSLGLPENHIVFPVPIDQEIDG
Output line: 0.66 nM

Input line: # return recorded cAMP assay IC50 for entry tag-free lipocalin mutein SEQ ID NO: 91 (designed binder, biotinylated by NHS chemistry for capture in SPR; also called tag-free mutein 91) GQDSTSDLIHAPPLSKVPLQQNFQDNQFHGKWYVVGRAGNDVLREDKDPEKMEATIYELKEDKSYNVTDVGFVQKRCMYVTHTFVPGSQPGEFTLGNIESYPGVTSALVRVVSTDYNQHAMVFVKLVKQNRELFEITLYGRTKELTSELKENFIRFSKSLGLPENHIVFPVPIDQCIDG
Output line: 0.16 nM

Input line: # return recorded cAMP assay IC50 for entry tag-free lipocalin mutein SEQ ID NO: 88 (designed binder, biotinylated by NHS chemistry for capture in SPR; also called tag-free mutein 88) GQDSTSDLIPAPPLSKVPLQQNFQDNQFHGKWYVVGRAGNDVLREDKDPEKMEATIYELKEDKSYNVTDVGFVQKRCMYVTHTFVPGSQPGEFTLGNIESYPGVTSALVRVVSTDYNQHAMVFVKLVKQNRELFEITLYGRTKELTSELKENFIRFSKSLGLPENHIVFPVPIDQCIDG
Output line: 0.17 nM

Input line: # return recorded cAMP assay IC50 for entry tag-free lipocalin mutein SEQ ID NO: 90 (designed binder, biotinylated by NHS chemistry for capture in SPR; also called tag-free mutein 90) GQDSTSDLKPAPPLSKVPLQQNFQDNQFHGKWYVVGRAGNDVLREDKDPEKMEATIYELKEDKSYNVTDVGFVQKRCMYVTHTFVPGSQPGEFTLGNIESYPGVTSALVRVVSTDYNQHAMVFVKLVKQNRELFEITLYGRTKELTSELKENFIRFSKSLGLPENHIVFPVPIDQCIDG
Output line: 0.16 nM
